Give growth for every item shown.
tested on: MDA-MB-231 breast; assay: NCI-60 one-dose screen, 48 h (100 = growth as untreated, 0 = no growth, -100 = all killed); conditions: 10 µM unless noted
The panel holds about 83,000 compounds, 20% with a hit somewhere; the sample as a whole holds those more often.
Numbers only, in %.

Solved entries (count: 2):
# structure.notation, observation.type, readout.value
measured = [
    ("NC(N)=Nc1ccc(Oc2cccc(NC(N)=Nc3ccc(Cl)c(C(F)(F)F)c3)c2)cn1", "growth", 43.8),
    ("CC(=O)c1nnn(-c2c(C(=O)n3nc(C)cc3C)sc(=S)n2-c2ccccc2)c1C", "growth", 89.2),
]

Provide the reported growth of each entry below, same order.
1. O=C(Nc1nc2ccc([N+](=O)[O-])cc2s1)Nc1ccccc1Cl
2. CCOC(=O)c1c(N)c(C#N)cn1-c1cc(OC)c(OC)c(OC)c1
3. Fc1ccc(-c2cc3nc(C(Cl)Cl)nc(-c4ccco4)n3n2)cc1

Result:
47.5
100
-26.2
